Assay: AUC (0 to infinity) in Sprague-Dawley rat at 1 mg/kg, iv
Assay type: ADME, organism-based
Design: time infinity, dose 1 mg/kg, route intravenous
Details: plasma
Measured Parameter: AUC(0-inf)
The reply must contain the numeric value and, after it, the unit.

Prompt line: Could you please provide reported AUC(0-inf) for "Cc1cc(O)c(C(=O)CCc2ccc3occc3c2)c(O[C@@H]2O[C@H](CO)[C@@H](O)[C@H](O)[C@H]2O)c1" ? Thanks!
Response line: 153 ng·h/mL

###

Experiment: Tmax in Sprague-Dawley rat at 10 mg/kg, po
Type: ADME, organism-based
Design: dose 10 mg/kg, route oral
Settings: in vivo
Measured Parameter: Tmax (h)
Reply numerically in h, unit not repeated.

Prompt line: Could you please provide reported Tmax for "COC(=O)OC[C@H]1O[C@@H](Oc2cc(C)cc(O)c2C(=O)CCc2ccc3occc3c2)[C@H](O)[C@@H](O)[C@@H]1O" ? Thanks!
Response line: 1.3

###

Assay: Total clearance in Sprague-Dawley rat at 1 mg/kg, iv
Assay type: ADME, organism-based
Parameters: dose 1 mg/kg, route intravenous
Conditions: in vivo
Measured Parameter: clearance
The reply must contain the numeric value and, after it, the unit.

Prompt line: Could you please provide reported clearance for "Cc1cc(O)c(C(=O)CCc2ccc3occc3c2)c(O[C@@H]2O[C@H](CO)[C@@H](O)[C@H](O)[C@H]2O)c1" ? Thanks!
Response line: 125 mL/min/kg

###

Experiment: Half life in Sprague-Dawley rat at 10 mg/kg, po
Assay type: ADME, organism-based
Design: dose 10 mg/kg, route oral
Settings: in vivo
Measured Parameter: half-life
The reply must contain the numeric value and, after it, the unit.

Prompt line: Could you please provide reported half-life for "COC(=O)OC[C@H]1O[C@@H](Oc2cc(C)cc(O)c2C(=O)CCc2ccc3occc3c2)[C@H](O)[C@@H](O)[C@@H]1O" ? Thanks!
Response line: 2.2 h

###

Experiment: Volume of distribution at steady state in Sprague-Dawley rat at 1 mg/kg, iv
Format: ADME, organism-based
Set-up: dose 1 mg/kg, route intravenous
Settings: in vivo, read-out: Vdss
Measured Parameter: Vd (L/kg)
Reply numerically in L/kg, unit not repeated.

Prompt line: Could you please provide reported Vd for "Cc1cc(O)c(C(=O)CCc2ccc3occc3c2)c(O[C@@H]2O[C@H](CO)[C@@H](O)[C@H](O)[C@H]2O)c1" ? Thanks!
Response line: 11.4

###

Experiment: AUC (0 to infinity) in Sprague-Dawley rat at 10 mg/kg, po
Assay type: ADME, organism-based
Parameters: dose 10 mg/kg, route oral, time infinity
Settings: plasma
Measured Parameter: AUC(0-inf) (ng·h/mL)
Reply numerically in ng·h/mL, unit not repeated.

Prompt line: Could you please provide reported AUC(0-inf) for "COC(=O)OC[C@H]1O[C@@H](Oc2cc(C)cc(O)c2C(=O)CCc2ccc3occc3c2)[C@H](O)[C@@H](O)[C@@H]1O" ? Thanks!
Response line: 304
